# Protocol text: protein stability index of a GFP-peptide fusion (GPS, HEK-293T) (PSI 1-6); higher = more stable;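 note: 24-mer peptide tiles fused after GFP, lentivirally expressed, FACS-sorted into six equal bins by GFP/DsRed ratio, decoded by Illumina sequencing, PSI is the read-weighted mean bin number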
# Condition: treatment: DMSO; c terminus: a fixed tail appended
Please mark Criterion met if the recorded protein stability index is equal to or greater than 3, and Criterion not met if it falls below.

Enquiry: Does FMEERELLGQDEETAMRKSLGEEE [RSPH3] have a reported protein stability index of at least 3?
Return: Criterion met

Enquiry: Next: AFLRRVKTCNPPDAGPMVVHCSAG [PTPRD]
Return: Criterion not met

Enquiry: Same thing, different sequence: SSAPRDVQARMLSSTTILVQWKEP [PTPRD]
Return: Criterion not met

Enquiry: Quick one: IAYYSYIYSVVDLGMYQKVTSYCR [SLC19A2]
Return: Criterion met

Enquiry: Another sequence to check: LKIPQVRGMDLSWESRTGDQYSYS [LCOR]
Return: Criterion not met

Enquiry: What do you get for PFVSAMPTPMPHNKGTRFSEAWEY [ZBED2] ?
Return: Criterion not met

Enquiry: Try the sequence DGAGRTWQDSDTVKLLVDLELSYG [TOR1AIP2]
Return: Criterion not met

Enquiry: Ok, now SLPSPSSSGHQNRRFSSEDLEDPL [FBF1]
Return: Criterion met

Enquiry: How about LQTGPLLGRPDSLELQRQREARKR [RSPH3] ?
Return: Criterion met

Enquiry: Quick one: TLLVCGKKAYDYFQAKKIPIVSSL [PDZK1]
Return: Criterion not met

Enquiry: Lookup GDIHLSPEEPAASTDPNIVRKKER [TAF7L]
Return: Criterion met

Enquiry: Consider next the sequence PSEEYGKILEVVGRYSVHNAGISF [MLH1] in the same way.
Return: Criterion not met

Enquiry: Same for FFLFIGVILFSSAVYFAEADDPTS [KCNA3]
Return: Criterion not met

Enquiry: ELARIVLLRHRMNWLGRPSKVLSL [RAB40A] , same question.
Return: Criterion not met

Enquiry: Also, VIRKNIVKKCLELFSELAEDKENY [HSP90AB1] please.
Return: Criterion not met

Enquiry: Next entry: DHLENVSKLVESGIQFMDEPEMAV [TRIM55]
Return: Criterion met

Enquiry: Same lookup for RLAQPSSPEVLTPQLSPGSGTPQA [RTN2] , please.
Return: Criterion met

Enquiry: Same again, this time with MLREPAEPVAAEPKQSGSFRYLQG [PDLIM4]
Return: Criterion met

Enquiry: Try the sequence QALQAKASLTIPLVPETEDDRKLA [YJU2B]
Return: Criterion met

Enquiry: RLWGIRKNRPAMNYDKLSRSIRQY [SPDEF] , same question.
Return: Criterion not met

Enquiry: Can you check DEIYRVLRYVNSTRAPQRAHEVLQ [FBXO28] next?
Return: Criterion not met

Enquiry: # iterate: RSCAIVEDDGLQSAFTAAHELGHV [ADAMTS4]
Return: Criterion met

Enquiry: Now the sequence RSRYDGHRIWMYNCHIGGSFSEET [LOXL2]
Return: Criterion not met

Enquiry: Request: TEQGFGEDLEDLGAVAPPVSGDLT [NFE2L1]
Return: Criterion met

Enquiry: How about this sequence: HGRHIDCPATWGPSVEQAADSLDF [FOXJ1]
Return: Criterion met

Enquiry: Do the same for RLPWAGQLTKELPLSPAFFGEDGI [PBXIP1] please
Return: Criterion met

Enquiry: Next record, please: EGHLDDGGYTPDLKMSYSRGLIPV [RBMY1A1]
Return: Criterion met

Enquiry: Please answer likewise for LPVYLKKDPAYFYGYVYFRQVRDK [DENND6A]
Return: Criterion not met

Enquiry: Next sequence: HTGERPYECTVCKKRFTRRSHLIG [ZNF449]
Return: Criterion not met

Enquiry: Try this sequence next: RTCFSPASDGSDFTFLRPLSVQQP [PCDHGC5]
Return: Criterion not met

Enquiry: Entry to check: RASALCDRHTKFFEEPEDPSNRSF [PPP2R2B]
Return: Criterion met

Enquiry: Same question for HWATGYSKSSHPLIRSLFHGFLFM [SOAT1] please.
Return: Criterion not met

Enquiry: What would you report for YLNEYEAEKIEYNESMKAYHNSPA [SMARCE1] ?
Return: Criterion met

Enquiry: Try TWRLPDVSEAGGSGRLSASWEPLS [FCHO1] next.
Return: Criterion met

Enquiry: Next record, please: NDRGDHYHWKDLNRGINITIYGKT [EFHC1]
Return: Criterion not met

Enquiry: Next record, please: KSQRQPRTSPSCAFRSDDTKGHPR [CDC14A]
Return: Criterion met

Enquiry: Try this sequence next: LGRSIVSSPQGKSGPEAARAGGWV [PKD2L1]
Return: Criterion met

Enquiry: Moving on to LTCSLSFLLCARSLLRGFLLQNEF [MCOLN1]
Return: Criterion met

Enquiry: What do we get for QGQPVVNRPLSLKDQQTFARSVGL [TRADD] ?
Return: Criterion met

Enquiry: Record: VDHHGTAQLQALRQKEVDFCISLL [INTS3]
Return: Criterion not met

Enquiry: Try this sequence too: WEAKQEKIKSEEIEITFSYWDGSG [FAM50A]
Return: Criterion not met

Enquiry: Next entry: RAKDFLPADIQAQFAISRELIRNI [SNX8]
Return: Criterion not met

Enquiry: Follow-up entry: GQTTGHPYYLRSFLVVLKTVLENE [FAN1]
Return: Criterion not met

Enquiry: What about RFIIIFEQIRFVMKAHSFVRENVP [SOAT1] ?
Return: Criterion not met

Enquiry: Moving on to the next sequence: YSGQITLLKLEQNTCSVITTLKGH [WDFY1]
Return: Criterion not met

Enquiry: Entry ALKEDFGFKHRLWVYSGRRGVHCW [PRIM1] please
Return: Criterion not met

Enquiry: Another sequence to look at: DTMLEEVENKEKDSNMPHFQTLQA [CEP70]
Return: Criterion met

Enquiry: What would you report for HYYPKLMSIMGNVLRFLPAFVRMK [GFOD1] ?
Return: Criterion not met

Enquiry: What do we get for YVHDPECVATTGDITVSVSTSFLP [FBXO3] ?
Return: Criterion not met

Enquiry: Next: ECSNIPLSQPQQGEAMLANFKPRG [GAN]
Return: Criterion met

Value source: the supplement of paper PMC10567573
